Just for reference, patent US10508120B2 is where these values come from.

Tested On: JAK2/JAK2 homdimeric complex (Homo sapiens (Human), UniProt O60674)
Sequence (O60674 whole entry): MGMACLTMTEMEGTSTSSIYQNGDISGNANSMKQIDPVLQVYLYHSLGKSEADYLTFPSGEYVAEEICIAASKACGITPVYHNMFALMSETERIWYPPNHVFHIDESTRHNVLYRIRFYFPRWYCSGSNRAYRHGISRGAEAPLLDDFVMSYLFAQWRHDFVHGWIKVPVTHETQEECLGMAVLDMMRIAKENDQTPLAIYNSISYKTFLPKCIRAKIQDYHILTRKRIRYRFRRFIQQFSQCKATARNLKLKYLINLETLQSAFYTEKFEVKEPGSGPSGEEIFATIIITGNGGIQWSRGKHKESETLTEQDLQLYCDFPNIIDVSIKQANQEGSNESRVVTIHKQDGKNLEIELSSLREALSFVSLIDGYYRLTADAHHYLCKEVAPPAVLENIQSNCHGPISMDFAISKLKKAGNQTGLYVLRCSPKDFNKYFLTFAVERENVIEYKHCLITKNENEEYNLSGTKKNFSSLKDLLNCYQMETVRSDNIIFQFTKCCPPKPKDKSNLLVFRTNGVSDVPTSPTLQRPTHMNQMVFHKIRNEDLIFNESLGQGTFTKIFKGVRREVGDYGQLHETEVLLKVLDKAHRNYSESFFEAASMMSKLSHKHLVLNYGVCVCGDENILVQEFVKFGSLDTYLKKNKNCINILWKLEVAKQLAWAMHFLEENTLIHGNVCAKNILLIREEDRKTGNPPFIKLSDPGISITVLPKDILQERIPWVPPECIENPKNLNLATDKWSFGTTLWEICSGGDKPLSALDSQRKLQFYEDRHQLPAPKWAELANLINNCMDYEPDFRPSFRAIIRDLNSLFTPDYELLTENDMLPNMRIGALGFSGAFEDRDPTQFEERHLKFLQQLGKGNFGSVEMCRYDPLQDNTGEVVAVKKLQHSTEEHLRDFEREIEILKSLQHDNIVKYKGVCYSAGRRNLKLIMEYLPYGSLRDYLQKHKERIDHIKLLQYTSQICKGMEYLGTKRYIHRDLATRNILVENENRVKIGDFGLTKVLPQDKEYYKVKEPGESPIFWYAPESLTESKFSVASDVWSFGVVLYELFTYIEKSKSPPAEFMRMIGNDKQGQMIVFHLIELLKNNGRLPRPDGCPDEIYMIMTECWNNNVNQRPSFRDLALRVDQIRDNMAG
Sequence (P32927 17-897 partner): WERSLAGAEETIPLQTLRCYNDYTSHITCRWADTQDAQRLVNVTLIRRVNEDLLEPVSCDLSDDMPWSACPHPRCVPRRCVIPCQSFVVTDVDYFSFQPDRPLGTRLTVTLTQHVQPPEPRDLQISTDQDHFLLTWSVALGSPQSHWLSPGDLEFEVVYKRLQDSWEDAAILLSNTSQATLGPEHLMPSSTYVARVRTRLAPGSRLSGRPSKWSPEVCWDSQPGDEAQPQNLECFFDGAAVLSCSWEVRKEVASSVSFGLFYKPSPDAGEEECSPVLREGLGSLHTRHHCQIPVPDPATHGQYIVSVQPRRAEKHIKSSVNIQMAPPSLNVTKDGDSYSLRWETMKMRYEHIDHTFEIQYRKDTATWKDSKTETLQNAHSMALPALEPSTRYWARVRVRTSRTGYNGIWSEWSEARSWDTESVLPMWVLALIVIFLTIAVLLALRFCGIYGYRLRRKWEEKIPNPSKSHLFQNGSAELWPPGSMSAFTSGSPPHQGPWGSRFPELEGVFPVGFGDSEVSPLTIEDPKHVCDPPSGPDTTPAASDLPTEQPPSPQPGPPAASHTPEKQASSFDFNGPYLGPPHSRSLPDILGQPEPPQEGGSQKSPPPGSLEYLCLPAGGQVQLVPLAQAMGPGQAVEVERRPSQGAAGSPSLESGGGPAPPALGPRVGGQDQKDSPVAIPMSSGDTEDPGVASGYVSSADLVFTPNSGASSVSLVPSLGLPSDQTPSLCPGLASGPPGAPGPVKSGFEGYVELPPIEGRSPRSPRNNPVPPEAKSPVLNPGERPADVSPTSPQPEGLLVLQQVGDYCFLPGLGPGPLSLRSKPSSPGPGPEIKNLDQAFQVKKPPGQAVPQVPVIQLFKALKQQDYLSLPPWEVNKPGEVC
Measurement Description: GM-CSF Induced pSTAT5 in Human PBMC
Experimental Parameters: GM-CSF 5 ng/mL for 20 minutes, pSTAT5 by MSD, read-out: PBMC_GMCSF_pSTAT5 IC50
pIC50: −log10 of the molar value.
// reported pIC50 per item
Assay Readout: pIC50

{"Compound": "CNc1cc(Nc2cccnc2OCCOC)nc2c(C(=O)NC3CCC3)cnn12", "Assay Readout": "pIC50", "Data Value": "< 4.90"}
{"Compound": "CNc1cc(Nc2cccn(-c3ccc(F)cn3)c2=O)nc2c(C(=O)N[C@H]3CC[C@@H]3OC)cnn12", "Assay Readout": "pIC50", "Data Value": "< 5.60"}
{"Compound": "CNc1cc(Nc2cccnc2OC)nc2c(C(=O)N[C@H]3C[C@@H]3O)cnn12", "Assay Readout": "pIC50", "Data Value": "< 4.30"}
{"Compound": "CNc1cc(-c2cn(C3CC3)c3ncccc23)nc2c(C(=O)N[C@H]3CC[C@@H]3OC)cnn12 (stereo in doubt)", "Assay Readout": "pIC50", "Data Value": "< 4.90"}
{"Compound": "CNc1cc(Nc2cccn([C@H]3CC[C@](C)(OC)CC3)c2=O)nc2c(C(=O)N[C@@H]3CC[C@H]3O)cnn12 [I-1107]", "Assay Readout": "pIC50", "Data Value": "< 5.60"}
{"Compound": "CNc1cc(Nc2cc(Cl)cn([C@@H]3CCCOC3)c2=O)nc2c(C(=O)NC3CC3)cnn12", "Assay Readout": "pIC50", "Data Value": "< 4.30"}
{"Compound": "CNc1cc(Nc2cccc(C)c2Cl)nc2c(C(N)=O)cnn12", "Assay Readout": "pIC50", "Data Value": "< 4.30"}
{"Compound": "CNc1cc(Nc2cccn(-c3cncc(F)c3)c2=O)nc2c(C(=O)N[C@H]3CC[C@@H]3OC)cnn12", "Assay Readout": "pIC50", "Data Value": "< 4.30"}
{"Compound": "CNc1cc(Nc2cccn([C@H]3CC[C@H](OC)CC3)c2=O)nc2c(C(=O)N[C@H]3C[C@H]3F)cnn12", "Assay Readout": "pIC50", "Data Value": "< 4.90"}
{"Compound": "CNc1cc(Nc2cccc([C@H]3CCCOC3)n2)nc2c(C(=O)N[C@@H]3CC[C@H]3O)cnn12", "Assay Readout": "pIC50", "Data Value": "< 4.90"}
{"Compound": "CNc1cc(Nc2cccn([C@@H]3CC[C@H]3O)c2=O)nc2c(C(=O)N[C@H]3CC[C@@H]3OC)cnn12", "Assay Readout": "pIC50", "Data Value": "< 4.30"}
{"Compound": "[2H]C([2H])([2H])Oc1ncccc1Nc1cc(NC)n2ncc(C(=O)NC3CC3)c2n1", "Assay Readout": "pIC50", "Data Value": "< 4.90"}
{"Compound": "[2H]C([2H])([2H])Oc1ncc(F)cc1Nc1cc(NC)n2ncc(C(=O)NC3CCC3)c2n1", "Assay Readout": "pIC50", "Data Value": "< 5.60"}
{"Compound": "CNc1cc(Nc2cccn(C[C@@H]3CCCCO3)c2=O)nc2c(C(=O)NC3CC3)cnn12", "Assay Readout": "pIC50", "Data Value": "< 4.30"}
{"Compound": "CNc1cc(Nc2cccn(-c3ccc(C(=O)N4CCCC4)cn3)c2=O)nc2c(C(=O)NC3CCC3)cnn12", "Assay Readout": "pIC50", "Data Value": "< 4.90"}
{"Compound": "CNc1cc(Nc2cc(Cl)cn(-c3ccn(C4CC4)n3)c2=O)nc2c(C(=O)N[C@H]3C[C@H]3F)cnn12", "Assay Readout": "pIC50", "Data Value": "< 5.60"}
